Let's go through some recorded IC50 values for α7-subtype of nicotinic receptors (Rattus norvegicus, UniProt Q05941) together.
Write it as a number; the unit nM goes unstated.

Exam item: Report IC50 for O=C(O)/C=C/C(=O)O.c1cc(-c2nnc(OC3CN4CCC3CC4)s2)cs1 (racemic) [Compound B17] please.
Marked response: 150

Exam item: Please give the result for O=C(O)/C=C/C(=O)O.c1cc(-c2cnc(OC3CN4CCC3CC4)s2)co1 (racemic) [Compound D5] too.
Marked response: 48

Exam item: How about this compound: O=C(O)/C=C/C(=O)O.c1ccc(-c2ccc(OC3CN4CCC3CC4)cc2)cc1 (racemic) [Compound A2]
Marked response: 160
